All values here come from patent US20150274719A1.

Target: recombinant guanylate cyclase reporter cell line (Rattus norvegicus, UniProt P19686+P20595)
Construct: expressed in transfected cells; host or cells: recombinant reporter cell line
Sequence (P19686 whole entry): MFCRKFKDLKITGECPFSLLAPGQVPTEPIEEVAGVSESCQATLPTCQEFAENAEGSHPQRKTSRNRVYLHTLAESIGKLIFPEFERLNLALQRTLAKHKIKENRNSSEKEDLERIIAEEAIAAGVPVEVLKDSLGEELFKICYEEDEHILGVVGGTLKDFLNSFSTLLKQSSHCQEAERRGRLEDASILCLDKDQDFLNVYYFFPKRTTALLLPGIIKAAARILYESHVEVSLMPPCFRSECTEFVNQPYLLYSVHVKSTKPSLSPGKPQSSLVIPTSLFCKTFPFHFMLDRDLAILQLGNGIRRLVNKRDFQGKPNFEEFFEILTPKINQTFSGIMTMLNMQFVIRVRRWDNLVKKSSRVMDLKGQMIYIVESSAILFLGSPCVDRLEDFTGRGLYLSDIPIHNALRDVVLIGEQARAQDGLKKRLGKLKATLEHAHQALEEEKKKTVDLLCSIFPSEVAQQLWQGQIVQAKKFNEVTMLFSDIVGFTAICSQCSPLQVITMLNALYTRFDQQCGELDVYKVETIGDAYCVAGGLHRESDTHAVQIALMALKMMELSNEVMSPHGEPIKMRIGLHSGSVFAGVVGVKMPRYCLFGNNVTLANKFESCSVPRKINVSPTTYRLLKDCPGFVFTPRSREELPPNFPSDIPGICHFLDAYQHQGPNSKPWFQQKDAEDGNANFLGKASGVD
Sequence (P20595 whole entry): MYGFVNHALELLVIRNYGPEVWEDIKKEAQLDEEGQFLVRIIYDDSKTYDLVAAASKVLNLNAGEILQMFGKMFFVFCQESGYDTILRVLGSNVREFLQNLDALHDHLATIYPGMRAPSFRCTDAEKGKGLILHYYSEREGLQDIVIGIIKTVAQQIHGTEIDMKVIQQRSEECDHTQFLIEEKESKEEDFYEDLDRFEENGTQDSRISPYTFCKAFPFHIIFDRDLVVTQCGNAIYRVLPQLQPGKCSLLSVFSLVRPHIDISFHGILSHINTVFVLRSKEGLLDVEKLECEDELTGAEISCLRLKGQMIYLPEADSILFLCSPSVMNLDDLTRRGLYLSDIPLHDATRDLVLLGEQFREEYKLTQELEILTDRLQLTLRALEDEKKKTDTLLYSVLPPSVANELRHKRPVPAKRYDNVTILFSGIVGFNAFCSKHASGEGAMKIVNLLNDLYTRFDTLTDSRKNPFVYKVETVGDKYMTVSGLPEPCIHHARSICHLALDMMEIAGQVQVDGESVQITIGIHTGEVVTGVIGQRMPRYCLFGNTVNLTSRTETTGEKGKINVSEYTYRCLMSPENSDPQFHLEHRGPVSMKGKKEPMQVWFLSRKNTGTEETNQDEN
Assay: Action on recombinant guanylate cyclase reporter cell line
Assay type: cell-based
Conditions: in some cases mean values from individual determinations
Structures can show the parent of a compound that is named as a salt.
Recorded Metric: MEC (minimal effective concentration) (µM)

{"columns": ["Compound", "Units Symbol", "Result Number"],
 "data": [
  ["Cc1nc2c(OCc3c(F)cccc3F)cccn2c1C(=O)NC(C)CN (single isomer, unassigned) [Example 20]", "µM", 1.00],
  ["CCCC(C)(N)CNC(=O)c1c(C)nc2c(OCc3c(F)cccc3F)cc(CC)cn12 (centres unmarked)", "µM", 0.30],
  ["Cc1nc2c(OCc3c(F)cccc3F)cc(Cl)cn2c1C(=O)NCC(N)CC(F)(F)F (single isomer, unassigned) [Example 193]", "µM", 1.00],
  ["Cc1nc2c(OCC3CCCCC3)cccn2c1C(=O)NC(CN)c1ccc(Cl)cc1 (racemic)", "µM", 1.00],
  ["CCCC(C)(N)CNC(=O)c1c(C)nc2c(OCc3c(F)cccc3F)cc(C)cn12 (single isomer, unassigned) [Example 233]", "µM", 0.10],
  ["CSCCC(N)CNC(=O)c1c(C)nc2c(OCc3c(F)cccc3F)cc(C)cn12 (racemic)", "µM", 0.10],
  ["Cc1cc(OCCC(C(F)(F)F)C(F)(F)F)c2nc(C)c(C(=O)NCC(C)(N)CC(C)C)n2c1 (racemic)", "µM", 1.00],
  ["Cc1nc2c(OCc3c(F)cccc3F)cccn2c1C(=O)NC(CNCC(F)(F)F)c1ccc(F)c(F)c1 (single isomer, unassigned; ent-8)", "µM", 0.30],
  ["Cc1cc(OCc2c(F)cccc2F)c2nc(C)c(C(=O)NC3CCNC(C(F)(F)F)C3)n2c1 (racemic)", "µM", 0.10],
  ["Cc1nc2c(OCc3c(F)cccc3F)cccn2c1C(=O)NC12CNCCC1C2 (single isomer, unassigned) [Example 185]", "µM", 1.00],
  ["CCCC[C@H](CN1CCN(C)CC1)NC(=O)c1c(C)nc2c(OCc3c(F)cccc3F)cccn12", "µM", 0.30],
  ["Cc1nc2c(OCc3c(F)cccc3F)cccn2c1C(=O)NC(CN)COc1ccccc1 (racemic) [Example 59, dihydrochloride]", "µM", 3.00],
  ["Cc1cc(OCc2c(F)cccc2F)c2nc(C)c(C(=O)NCC(N)CCS(C)(=O)=O)n2c1 (racemic)", "µM", 5.5],
  ["Cc1cc(OCc2c(F)cccc2F)c2nc(C)c(C(=O)NCC(C)N3CCOCC3)n2c1 (single isomer, unassigned; ent-8) [Example 186]", "µM", 0.30]
]}

----------
Target: recombinant guanylate cyclase reporter cell line (Rattus norvegicus, UniProt P19686+P20595)
Construct: expressed in transfected cells; host or cells: recombinant reporter cell line
Assay: Action on recombinant guanylate cyclase reporter cell line
Assay type: cell-based
Conditions: in some cases mean values from individual determinations
Item-by-item account of MEC (minimal effective concentration)

{"columns": ["Molecule", "MEC (minimal effective concentration) [µM]"],
 "data": [
  ["Cc1nc2c(OCc3c(F)cccc3F)cccn2c1C(=O)NC(CN)c1ccc(F)c(F)c1 (racemic) [Example 11]", 0.30],
  ["Cc1cc(OCc2c(F)cccc2F)c2nc(C)c(C(=O)NCC(N)c3csc(C)n3)n2c1 (racemic) [Example 415, triformate]", 5.5],
  ["Cc1nc2c(OCc3c(F)cccc3F)cccn2c1C(=O)NCC(C(C)C)N(C)C (single isomer, unassigned; ent-8) [Example 188]", 1.00],
  ["Cc1nc2c(OCc3c(F)cccc3F)cccn2c1C(=O)NC1CNCc2ccccc21 (single isomer, unassigned; ent-8) [Example 110]", 0.30],
  ["Cc1cc(OCc2c(F)cccc2F)c2nc(C)c(C(=O)NCC(C)(N)CC(C)C)n2c1 (single isomer, unassigned) [Example 220]", 0.10],
  ["COCC(CN)NC(=O)c1c(C)nc2c(OCc3c(F)cccc3F)cccn12 (single isomer, unassigned) [Example 122]", 1.00]
]}
